Numbers sourced from ChEMBL document CHEMBL1131289.

Substance-P receptor (Homo sapiens, UniProt P25103) measurements of log10 of Ki, listed per entry.
Sequence (P25103 whole entry): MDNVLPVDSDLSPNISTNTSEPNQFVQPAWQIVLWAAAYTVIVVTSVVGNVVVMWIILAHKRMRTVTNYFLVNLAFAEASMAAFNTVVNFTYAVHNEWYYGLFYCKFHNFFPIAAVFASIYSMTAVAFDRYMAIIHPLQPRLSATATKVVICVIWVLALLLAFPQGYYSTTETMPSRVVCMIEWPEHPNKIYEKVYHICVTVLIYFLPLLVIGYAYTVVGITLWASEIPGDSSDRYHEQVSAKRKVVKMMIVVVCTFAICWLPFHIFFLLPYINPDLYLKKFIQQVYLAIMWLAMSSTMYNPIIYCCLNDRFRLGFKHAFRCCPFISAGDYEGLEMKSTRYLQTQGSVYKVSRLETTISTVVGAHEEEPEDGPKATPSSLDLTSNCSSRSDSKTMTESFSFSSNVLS
Metric: log10 of Ki (log10 of the value in nM)

Compound: CN(Cc1ccccc1)C(=O)[C@H](Cc1ccc2ccccc2c1)NC(=O)[C@@H]1CCCN1C(=O)Nc1cccc(F)c1
log10 of Ki: -0.15
//
Compound: CN(Cc1ccccc1)C(=O)[C@H](Cc1ccc2ccccc2c1)NC(=O)[C@@H]1CCCN1C(=O)Nc1cccc(C#N)c1
log10 of Ki: 0.62
//
Compound: CN(Cc1ccccc1)C(=O)[C@H](Cc1ccccc1)NC(=O)[C@@H]1CCCN1C(=S)NCc1cc(C(F)(F)F)cc(C(F)(F)F)c1
log10 of Ki: 1.90
//
Compound: CNC(=O)c1ccccc1NC(=O)N1CCC[C@H]1C(=O)N[C@@H](Cc1ccc2ccccc2c1)C(=O)N(C)Cc1ccccc1
log10 of Ki: 0.58
//
Compound: CN(Cc1ccccc1)C(=O)[C@H](Cc1ccccc1)NC(=O)[C@@H]1CCCN1/C(S)=N/Cc1ccccc1[N+](=O)[O-]
log10 of Ki: 1.89
//
Compound: CN(Cc1ccccc1)C(=O)[C@H](Cc1ccccc1)N(C)C(=O)[C@@H]1CCCN1/C(S)=N/Cc1ccccc1Cl
log10 of Ki: 1.58
//
Compound: CN(Cc1ccccc1)C(=O)[C@H](Cc1ccccc1)NC(=O)[C@@H]1CCCN1/C(S)=N/Cc1ccccc1C(F)(F)F
log10 of Ki: 1.43
//
Compound: CN(Cc1ccccc1)C(=O)[C@H](Cc1ccccc1)NC(=O)[C@@H]1CCCN1C(=S)Nc1ccccc1 (single isomer, unassigned)
log10 of Ki: 1.90
//
Compound: CN(Cc1ccccc1)C(=O)[C@H](Cc1ccc2ccccc2c1)NC(=O)[C@@H]1CCCN1C(=O)Nc1ccccc1O
log10 of Ki: 0.41
//
Compound: CN(Cc1ccccc1)C(=O)[C@H](Cc1ccc2ccccc2c1)NC(=O)[C@@H]1CCCN1C(=O)Nc1ccccc1
log10 of Ki: -0.06
